FYI, the data here is from patent US20230303542A1.

Assay: Dynamic solubility of Form II in mixed solvents, dissolution observed visually
Assay type: physicochemical
Conditions: volume ratio 1/2, organic solvent or mixture, thermodynamic from solid; Ethyl formate/IPAC, volume ratio ½; RT; read-out: Solubility
Source text: The solubility data was used to control supersaturation and calculate theoretical yield of the crystallization process.

compound | solubility at 30 min
CC(=O)N1CCC(COc2cc(F)c3c(=O)[nH]c(CSC4CCOCC4)nc3c2)CC1 [Form II] | < 1000 µg/mL

----------
assay: Dynamic solubility of Form II in mixed solvents, dissolution observed visually; type: physicochemical; conditions: organic solvent or mixture, thermodynamic from solid; MeOH/Anisole/MTBE (1/2/6); 25° C.

molecule | solubility
CC(=O)N1CCC(COc2cc(F)c3c(=O)[nH]c(CSC4CCOCC4)nc3c2)CC1 [Form II] | ~3000 µg/mL

----------
test: Dynamic solubility of Form II in mixed solvents, dissolution observed visually; assay type: physicochemical; settings: organic solvent or mixture, thermodynamic from solid; MeOH/MEK, volume ratio 1/1; RT; read-out: Solubility

compound | solubility at 30 min
CC(=O)N1CCC(COc2cc(F)c3c(=O)[nH]c(CSC4CCOCC4)nc3c2)CC1 [Form II] | 20 to 30 mg/mL

----------
test: Dynamic solubility of Form II in single solvents, dissolution observed visually; assay type: physicochemical; conditions: organic solvent or mixture, thermodynamic from solid; Tert-Butyl methyl ether (MTBE); 22° C.

compound | solubility
CC(=O)N1CCC(COc2cc(F)c3c(=O)[nH]c(CSC4CCOCC4)nc3c2)CC1 [Form II] | < 0.6 mg/mL

----------
Experiment: Dynamic solubility of Form II in mixed solvents, dissolution observed visually
Format: physicochemical
Conditions: organic solvent or mixture, thermodynamic from solid; MeOH/water (9/1); RT (Table of MeOH/Water); read-out: Dynamic solubility
Text: The solubility data was used to control supersaturation and calculate theoretical yield of the crystallization process.

molecule | solubility at 30 min
CC(=O)N1CCC(COc2cc(F)c3c(=O)[nH]c(CSC4CCOCC4)nc3c2)CC1 [Form II] | 10 to 13 mg/mL

----------
test: Dynamic solubility of Form II in mixed solvents, dissolution observed visually; type: physicochemical; settings: MeOH/Anisole (1/2), organic solvent or mixture, thermodynamic from solid; MeOH/Anisole (½); 25° C.

compound | solubility
CC(=O)N1CCC(COc2cc(F)c3c(=O)[nH]c(CSC4CCOCC4)nc3c2)CC1 [Form II] | ~150 mg/mL

----------
assay: Preliminary solubility of Compound 1 Form I, visual assessment; type: physicochemical; conditions: organic solvent or mixture, thermodynamic from solid; Ethyl acetate (EA); estimated via visual assessment

molecule | unitName | solubility
CC(=O)N1CCC(COc2cc(F)c3c(=O)[nH]c(CSC4CCOCC4)nc3c2)CC1 [Form I] | µg/mL | 2500

----------
assay: Kinetic solubility of Form II, clear temperature point by Crystal 16; format: physicochemical; conditions: organic solvent or mixture, thermodynamic from solid; at 30° C.; volume ratio of MeOH-water/MTBE 9/1/30

compound | solubility at 30 min
CC(=O)N1CCC(COc2cc(F)c3c(=O)[nH]c(CSC4CCOCC4)nc3c2)CC1 [Form II] | 6500 µg/mL

----------
test: Dynamic solubility of Form II in mixed solvents, dissolution observed visually; assay type: physicochemical; conditions: volume ratio 1/2, organic solvent or mixture, thermodynamic from solid; MeOH/Acetone, volume ratio ½; RT; read-out: Solubility

molecule | solubility at 30 min
CC(=O)N1CCC(COc2cc(F)c3c(=O)[nH]c(CSC4CCOCC4)nc3c2)CC1 [Form II] | < 14 mg/mL

----------
assay: Dynamic solubility of Form II in mixed solvents, dissolution observed visually; format: physicochemical; conditions: organic solvent or mixture, thermodynamic from solid; MeOH/water, volume ratio 9/1; RT (Table of mixed solvents at RT); read-out: Solubility

molecule | solubility at 30 min
CC(=O)N1CCC(COc2cc(F)c3c(=O)[nH]c(CSC4CCOCC4)nc3c2)CC1 [Form II] | 35 to 43 mg/mL

----------
Assay: Dynamic solubility of Form II in mixed solvents, dissolution observed visually
Assay type: physicochemical
Conditions: organic solvent or mixture, thermodynamic from solid; MeOH/water (9/1); 60° C.
Text: The solubility data was used to control supersaturation and calculate theoretical yield of the crystallization process.

molecule | solubility
CC(=O)N1CCC(COc2cc(F)c3c(=O)[nH]c(CSC4CCOCC4)nc3c2)CC1 [Form II] | > 125 mg/mL

----------
test: Dynamic solubility of Form II in mixed solvents, dissolution observed visually; type: physicochemical; settings: volume ratio 1/2, organic solvent or mixture, thermodynamic from solid; MeOH/Ethyl formate, volume ratio ½; RT; read-out: Solubility

molecule | solubility at 30 min
CC(=O)N1CCC(COc2cc(F)c3c(=O)[nH]c(CSC4CCOCC4)nc3c2)CC1 [Form II] | < 25 mg/mL

----------
experiment: Dynamic solubility of Form II in single solvents, dissolution observed visually; assay type: physicochemical; settings: organic solvent or mixture, thermodynamic from solid; Dichloromethane (DCM); 22° C.
readoutType: solubility (mg/mL)

compound | readoutType | endpointResult
CC(=O)N1CCC(COc2cc(F)c3c(=O)[nH]c(CSC4CCOCC4)nc3c2)CC1 [Form II] | solubility | 16.7

----------
assay: Dynamic solubility of Form II in mixed solvents, dissolution observed visually; assay type: physicochemical; settings: volume ratio 1/2, organic solvent or mixture, thermodynamic from solid; Ethyl formate/n-BuOH, volume ratio ½; RT; read-out: Solubility
readoutType: solubility at 30 min

compound | endpointResult
CC(=O)N1CCC(COc2cc(F)c3c(=O)[nH]c(CSC4CCOCC4)nc3c2)CC1 [Form II] | 3000 to 4000 µg/mL

----------
experiment: Preliminary solubility of Compound 1 Form I, visual assessment; assay type: physicochemical; details: organic solvent or mixture, thermodynamic from solid; Toluene; estimated via visual assessment
readoutType: solubility

compound | endpointResult
CC(=O)N1CCC(COc2cc(F)c3c(=O)[nH]c(CSC4CCOCC4)nc3c2)CC1 [Form I] | < 600 µg/mL

----------
assay: Preliminary solubility of Compound 1 Form I, visual assessment; format: physicochemical; conditions: organic solvent or mixture, thermodynamic from solid; Acetone; estimated via visual assessment
readoutType: solubility (µg/mL)

molecule | unitName | endpointResult
CC(=O)N1CCC(COc2cc(F)c3c(=O)[nH]c(CSC4CCOCC4)nc3c2)CC1 [Form I] | µg/mL | 1000

----------
assay: Dynamic solubility of Form II in mixed solvents, dissolution observed visually; assay type: physicochemical; conditions: organic solvent or mixture, thermodynamic from solid; MeOH; RT; read-out: Dynamic solubility

molecule | solubility at 30 min (µg/mL)
CC(=O)N1CCC(COc2cc(F)c3c(=O)[nH]c(CSC4CCOCC4)nc3c2)CC1 [Form II] | 8300

----------
assay: Dynamic solubility of Form II in mixed solvents, dissolution observed visually; assay type: physicochemical; conditions: organic solvent or mixture, thermodynamic from solid; MeOH/water (8/2); 50° C.

compound | solubility
CC(=O)N1CCC(COc2cc(F)c3c(=O)[nH]c(CSC4CCOCC4)nc3c2)CC1 [Form II] | 50 to 100 mg/mL

----------
assay: Dynamic solubility of Form II in mixed solvents, dissolution observed visually; type: physicochemical; details: organic solvent or mixture, thermodynamic from solid; MeOH; 60° C.

compound | solubility
CC(=O)N1CCC(COc2cc(F)c3c(=O)[nH]c(CSC4CCOCC4)nc3c2)CC1 [Form II] | 71 to 83 mg/mL

----------
assay: Preliminary solubility of Compound 1 Form I, visual assessment; type: physicochemical; details: organic solvent or mixture, thermodynamic from solid; 2-Me-THF; estimated via visual assessment

molecule | solubility
CC(=O)N1CCC(COc2cc(F)c3c(=O)[nH]c(CSC4CCOCC4)nc3c2)CC1 [Form I] | 10000 µg/mL

----------
experiment: Dynamic solubility of Form II in mixed solvents, dissolution observed visually; type: physicochemical; details: organic solvent or mixture, thermodynamic from solid; Anisole; 25° C.
readoutType: solubility

molecule | endpointResult
CC(=O)N1CCC(COc2cc(F)c3c(=O)[nH]c(CSC4CCOCC4)nc3c2)CC1 [Form II] | < 1 mg/mL

----------
experiment: Preliminary solubility of Compound 1 Form I, visual assessment; type: physicochemical; conditions: organic solvent or mixture, thermodynamic from solid; Heptane; estimated via visual assessment

compound | solubility
CC(=O)N1CCC(COc2cc(F)c3c(=O)[nH]c(CSC4CCOCC4)nc3c2)CC1 [Form I] | < 600 µg/mL

----------
Test: Dynamic solubility of Form II in mixed solvents, dissolution observed visually
Type: physicochemical
Details: volume ratio 1/2, organic solvent or mixture, thermodynamic from solid; Ethyl formate/MTBE, volume ratio ½; RT; read-out: Solubility
Description: The solubility data was used to control supersaturation and calculate theoretical yield of the crystallization process.
readoutType: solubility at 30 min

compound | endpointResult
CC(=O)N1CCC(COc2cc(F)c3c(=O)[nH]c(CSC4CCOCC4)nc3c2)CC1 [Form II] | < 2 mg/mL
